# Test system: UO-31 renal
Outcomes: yes = active, no = inactive

{"columns": ["molecule", "assigned label"],
 "data": [
  ["CC1(C)C(=O)/C(=C\\c2ccco2)C[C@]2(C)[C@H]3CC=C4[C@@H]5C[C@](C)(C(=O)O)CC[C@]5(C)CC[C@@]4(C)[C@]3(C)CC[C@@H]12", "no"],
  ["COC1C(O)=C2C(=O)OC(C)(O)/C=C/C=C\\C=C/C=C/C(c3ccccc3)NC(=O)/C=C/C=C/C=C/C=C/C2(C)C1O (centres undefined)", "yes"],
  ["C=C1C(O)C2C(=C(CC(C)C)C13CC3)C(=O)C(C)(C)C2OC (centres undefined)", "no"],
  ["C=C(CNCCO)[C@@H]1CC[C@]2(CO)CC[C@]3(C)[C@H](CC[C@@H]4[C@@]5(C)CCC(NCCc6ccc(O)cc6)C(C)(C)[C@@H]5CC[C@]43C)[C@@H]12 (some centres undefined)", "no"]
]}

###

Entries annotated with measured TGI
# Tested on: SK-MEL-28 melanoma
# measurement protocol: NCI tumour cell line growth inhibition, 48 h
property: TGI (µM)

{"columns": ["compound", "value operator", "measured value"],
 "data": [
  ["O=c1c(OC/C(=N/O)c2ccccc2)c(-c2ccccc2)oc2ccccc12", "=", 28.9],
  ["COc1ccc2nc3c([N+](=O)[O-])ccc4c3c(c2c1)NCCN4C", "=", 6.5],
  ["c1ccc(COc2ccc3[nH]c4c(ncc5[nH]c6ccccc6c54)c3c2)cc1", "=", 31.6],
  ["Cc1ccc(S(=O)(=O)ON/N=C2/C3OC3[C@@H]3CCCC[C@H]23)cc1 (stereo not given in full)", ">", 100],
  ["O=C(c1cccs1)N(C(=O)N1CCC(c2ccccc2)CC1)c1ccccc1", ">", 100],
  ["Fc1cccc2nc(-c3ccccc3)cc(OCc3ccccc3)c12", ">", 100],
  ["O=C(c1ccco1)N(C(=S)N1CCN(c2ccccc2)CC1)c1ccccc1", ">", 100],
  ["N#CC1C(N)=NNC1c1ccc(-c2ccc(-c3nc4ccccc4o3)cc2)o1 (stereo not given)", ">", 100],
  ["CCN(CC)CCNc1ccc(N=Nc2ccc(S(N)(=O)=O)cc2)c2ccccc12", "=", 28.1],
  ["Cc1ccc(S(=O)(=O)NCCN2c3nc4ccccc4cc3Sc3cc4ccccc4nc32)cc1", ">", 100]
]}

###

# System: SNB-75 CNS
Listing of entries alongside the reported GI50.

{"columns": ["molecule", "GI50"],
 "data": [
  ["CC/C=C\\C[C@H](O)C/C=C1/C(=O)C=C[C@@H]1C/C=C\\CCCC(N)=O", "10.5 µM"],
  ["CCN(CC)CC(C)Nc1ccc(C)c2sc3ccccc3c(=O)c12 (centres undefined)", "2.2 µM"],
  ["CCCCc1cc(O)ccc1O", "14.1 µM"],
  ["CCC(=O)N1C/C(=C/c2ccc(OC)cc2)C(=O)/C(=C/c2ccc(OC)cc2)C1", "5.91 µM"],
  ["CCN(CC)C(=S)SSC1CCCCC1", "17.5 µM"],
  ["NCCCCCCNc1cc(-c2cccc(OC(F)(F)F)c2)nc2ccc(N3CCCC3)cc12", "1.57 µM"],
  ["O=C(Nc1ccc(Br)cc1)c1cc(Br)cc(Br)c1O", "2.16 µM"],
  ["O=c1c(OC/C(=N/O)c2ccccc2)c(-c2ccccc2)oc2ccccc12", "16.8 µM"],
  ["O=Nc1c2cccnc2n2nnc3ccc(Cl)cc3c12", "3.19 µM"]
]}
